Tested on: methicillin-resistant Staphylococcus aureus or MRSA
Assay: In vitro antibacterial activity, MIC by micro broth dilution
Format: cell-based
Conditions: read-out: MIC MRSA
# reported MIC; entries follow

| Compound | Readout Value |
| --- | --- |
| COC[C@H]1CN(c2noc3c(F)c4c(cc23)CC2(C(=O)NC(=O)NC2=O)[C@H]2[C@H](C)O[C@H](C)CN42)C(=O)S1 | 0.03 to 0.5 µg/mL |
| C[C@@H]1CN2c3c(cc4c(N5C[C@@H](C)SC5=O)noc4c3F)CC3(C(=O)NC(=O)NC3=O)[C@H]2[C@H](C)O1 | 0.03 to 0.25 µg/mL |
| C[C@@H]1CN2c3c(cc4c(N5C(=O)S[C@@H]6CCC[C@@H]65)noc4c3F)CC3(C(=O)NC(=O)NC3=O)[C@H]2[C@H](C)O1 | 0.03 to 0.125 µg/mL |
| C[C@@H]1CN2c3c(cc4c(N5C[C@H](CN=[N+]=[N-])SC5=O)noc4c3F)CC3(C(=O)NC(=O)NC3=O)[C@H]2[C@H](C)O1 | 0.25 to 0.5 µg/mL |
| C[C@@H]1CN2c3c(cc4c(N5CCSC5=O)noc4c3F)CC3(C(=O)NC(=O)NC3=O)[C@H]2[C@H](C)O1 | 0.03 to 0.06 µg/mL |
| C[C@@H]1CN2c3c(cc4c(N5C(=O)OC[C@@H]5C)noc4c3F)CC3(C(=O)NC(=O)NC3=O)[C@H]2[C@H](C)O1 [AZD0914, reference compound] | 0.06 to 1 µg/mL |

Ask | Return MIC measured with methicillin-resistant Staphylococcus aureus or MRSA given this compound: `CC[C@@H]1CN(c2noc3c(F)c4c(cc23)CC2(C(=O)NC(=O)NC2=O)[C@H]2[C@H](C)O[C@H](C)CN42)C(=O)S1`
Reply | 0.03 to 0.06 µg/mL
